# System: HL-60(TB) leukemia
# assay_protocol: NCI-60 one-dose screen, 48 h (100 = growth as untreated, 0 = no growth, -100 = all killed)
# condition_summary: 10 µM unless noted
About 83,000 compounds went through this panel and 20% of them were active in at least one assay; those are over-represented in the sample as a whole.
property_name: growth (%)

• N#C/C(=C\c1ccc(-c2cccc(Cl)c2)o1)C(=O)Nc1ncc(Cc2ccc(Cl)cc2)s1 = 83.9
• CN(C)CCCNC1=C(Cl)C(=O)c2ccccc2C1=O = 45.3
• COc1ccc(-c2[nH]c(=S)n(C(CC3(C)NCC(=O)N3n3c(-c4ccccc4)cc(C)nc3=S)c3ccc(OC)cc3)c(=O)c2Br)cc1 (stereo not given) = 59.6
• CCOC(=O)/C(O)=C(\C=N\C(=S)Nc1ccc(Cl)c(Cl)c1)C(=O)OCC = 83.6
• CCCOc1ccc(-c2nc(-c3ccc(N)cc3)cs2)cc1 = 56.7

###

# Test system: MDA-MB-231 breast
# assay_protocol: NCI-60 one-dose screen, 48 h
# condition_summary: 10 µM unless noted
About 83,000 compounds went through this panel and 20% of them were active in at least one assay; those are over-represented in the sample as a whole. Activity calls are given as the source filed them. How the source made its calls: active means growth percent below 10; inactive means the rest.
Possible outcomes: active, inactive

* NC(=O)NC(=O)CI | inactive
* ClCCN(CCCl)c1nc(Cl)c(C2CC(c3ccc(Cl)cc3)=NN2c2cc(Cl)cc(Cl)c2)s1 (stereo not drawn) | inactive
* O=S(=O)(F)c1ncnc2nc[nH]c12 | inactive
* Fc1ccc(C2=NN(c3ccccc3)C(c3sc(N(CCCl)CCCl)nc3Cl)C2)cc1 (stereo not drawn) | inactive
* C[C@]12CC[C@H]3[C@@H](C[C@@H]4N=C(c5ccc(O)cc5)S[C@@]45C[C@H](O)CC[C@]35C)[C@@H]1CC[C@@H]2O | inactive
* Oc1c(Br)cc(Br)cc1Br.[Cu+2] | inactive
* OC1(c2ccccc2F)c2ccccc2C2=NCCN21 (stereo not drawn) | inactive
* COc1cc(C2=NN(c3ccccc3)C(c3sc(N(CCCl)CCCl)nc3Cl)C2)cc(OC)c1OC (stereo not drawn) | inactive
* OB([O][Hg][c]1ccccc1)[O][Hg][c]1ccccc1 | active
* O=C(O)CNC(=O)c1ccccc1 | inactive
* ClCCN(CCCl)c1ccc(/C=C\c2ccnc3ccccc23)cc1 | inactive
* CNC(=O)Oc1ccccc1 | inactive
* CCCCCCCCCCOc1ccc(C(=O)Oc2ccc(CSP3(=O)OCC4OC(n5ccc(=O)[nH]c5=O)C(F)C4OP(=O)(O)OCC4OC(n5cnc6c(N)ncnc65)C(F)C4O3)cc2)cc1 (stereo not drawn) | inactive
* CC(=O)[O][Hg][c]1ccccc1 | active
* CC1CC=CCC12C(=O)NC(=S)NC2=O (stereo not drawn) | inactive
* Oc1ccccc1OB(Oc1ccccc1O)N(CCCl)CCCl | inactive
* O=c1[nH]c2cc(Cl)ccc2n1C1CCN(CCCC(c2ccc(F)cc2)c2ccc(F)cc2)CC1 | inactive
* Nc1ccc(N)c2c1Oc1ccccc1O2 | inactive
* CC(=O)O[C@@H]1C2=C(C)C3(CC3)[C@@](C)(O)C(=O)C2=C[C@@]1(C)CO | active
* O=C1c2ccccc2C(=O)N1[N+](=O)[O-] | inactive
* COc1cc(CNCCc2ccc(Cl)cc2)cc(OC)c1O | inactive
* CCOc1cc(/C=N\Nc2nnc(C)n2N)c(C)cc1N(CCCl)CCCl | inactive
* FC(F)=C(F)c1ccccc1 | inactive

###

The following compounds are shown together with reported growth values.
# Tested on: SK-MEL-28 melanoma
# assay_protocol: NCI-60 one-dose screen, 48 h (100 = growth as untreated, 0 = no growth, -100 = all killed)
# condition_summary: 10 µM unless noted
About 83,000 compounds went through this panel and 20% of them were active in at least one assay; those are over-represented in the sample as a whole.
property_name: growth (%)

* CC1(C)CC2(CC(C)(C)c3cc(O)c(O)cc32)c2cc(O)c(O)cc21 | 97
* O=C(O)C1[O][Sb][O]C1C(=O)O (stereo not given) | 94
* CC(C)(C)[Si](C)(C)OC1[C@@H](O[Si](C)(C)C(C)(C)C)[C@@H](CNC(=O)NC(=O)CF)O[C@H]1n1cnc2c(NC(=O)Nc3ccccc3)ncnc21 (stereo not given in full) | 93.2
* COc1ccc(CN2CCN(Cc3ccccc3)CC2)c(O)c1 | 115
* Nc1cccc2c1Oc1ccccc1O2 | 124

###

# Test system: MALME-3M melanoma
# assay_protocol: NCI-60 one-dose screen, 48 h (100 = growth as untreated, 0 = no growth, -100 = all killed)
# condition_summary: 10 µM unless noted
Compounds without any hit were thinned out: in the full panel of roughly 83,000, 20% have a hit.
growth listing for selected compounds.
property_name: growth (%)

- C=CC(O)CN1CC1CC (configuration not stated): 110
- C1CN1c1nc(N2CC2)nc(N2CC2)n1: 49.7
- Cc1ccccc1O: 115
- Cc1ccc(N)cc1[As]=[As]c1cc(N)ccc1C (configuration not stated): -90.7
- CCC[CH2][Sn]([CH2]CCC)([CH2]CCC)[O]C(=O)c1ccc(Cl)cc1Cl: -76.8
- CNC(=O)O/N=C(/C)c1ccc(Cl)cc1: 101
- CC12CCC(=O)C=C1C(O)CC1C2CCC2(C)C(O)CCC12 (configuration not stated): 95.9

###

# Test system: HL-60(TB) leukemia
# assay_protocol: NCI-60 one-dose screen, 48 h (100 = growth as untreated, 0 = no growth, -100 = all killed)
# condition_summary: 10 µM unless noted
The panel holds about 83,000 compounds, 20% with a hit somewhere; the sample as a whole holds those more often. Active and inactive are the calls of the source. Rule for the calls: active = growth percent below 10; inactive = the rest.
property_name: growth

• Cc1ccc(NC(=O)c2ccccc2Cl)cc1 = 86.1% (inactive)
• CN(C)CCC1(c2ccccc2)CCN(C)C1=O (configuration not stated) = 109% (inactive)
• COc1cc(C)c2c(=O)c3c(oc2c1)C(=O)c1c(O)c(OC)cc(O)c1C3=O = -45.4% (active)
• COc1c(Cl)ccc2c(-c3nc4cc(Cl)c(F)cc4s3)cc(=O)oc12 = -18.1% (active)
• C#CC(=O)/C=C/CCCCCCC#CC(=O)CCC(=O)C#CCCCCCC/C=C/C(=O)C#C = -70.1% (active)
• C[C@@H]1COC(Nc2ccc3ncnc(Nc4ccc(OCc5nccs5)c(Cl)c4)c3c2)=N1 = 31.3% (inactive)
• Oc1ccc(N=Nc2ccccn2)c(O)c1 = -37.3% (active)
• O=C(Nc1ccc(F)cc1)Nc1ccc(Br)c(C(F)(F)F)c1 = -41.9% (active)
• CN(C)c1ccc(/C=C/C(=O)c2ccccc2)cc1 = 66.7% (inactive)
• COc1cc(NC(=O)c2cc3ccccc3cc2O)c(OC)cc1Cl = -29.2% (active)
• COc1ccc(S(=O)(=O)N2CCCCC2)cc1NC(=O)c1[nH]c(C)c2c1CCCCC2=O = -10.9% (active)
• COCc1c(-c2ccc(NC(=O)Nc3cc(C(F)(F)F)ccc3F)c(F)c2)c2c(N)ncnn2c1CN1CCOCC1 = -22% (active)
• Cc1c(NC(=O)c2sc3nc4c(cc3c2N)CN(Cc2ccccc2)CC4)cccc1C(F)(F)F = 3.22% (active)
• CC[N+](CC)(CCOCCOCC[N+](CC)(CC)Cc1ccc([N+](=O)[O-])cc1)Cc1ccc([N+](=O)[O-])cc1 = 93.4% (inactive)
• Cc1cc2nc(CS)[nH]c2cc1C = 80.1% (inactive)
• CCOC(=O)c1ccccc1OC(=O)NNc1ccccc1 = -7.77% (active)
• COS(=O)(=O)c1ccc(Br)cc1 = 122% (inactive)
• Cc1ccc2nc(-c3ccc(C(=O)NNC(=S)Nc4ccccc4)cc3)[nH]c2c1 = 98% (inactive)
• CC(=O)O[C@@H]1C[C@]2(C(C)C)O[C@@]1(C)[C@@H]1CCC(C)=C1[C@@H]2OC(=O)/C=C/c1ccccc1 = 78.8% (inactive)
• CCOC(CN=Cc1cc(C)c2[nH]c3ccccc3c2c1C)OCC = 76.6% (inactive)
• COc1ccc(-c2c(N)n[nH]c2-c2ccccc2O)cc1OC = 110% (inactive)
• CC1(C)C2CCC(O)(C(=O)O)C1C2 (configuration not stated) = 107% (inactive)

###

# growth values compiled below
# Tested on: EKVX NSCLC
# assay_protocol: NCI-60 one-dose screen, 48 h (100 = growth as untreated, 0 = no growth, -100 = all killed)
# condition_summary: 10 µM unless noted
This is part of a sample that, as a whole, favours compounds with a hit. Of some 83,000 tested, about 20% had one in any assay.
property_name: growth (%)

* CC(C)(NC(=O)c1nn(CCCCCF)c2ccccc12)c1ccccc1 | 94.7
* CC(C)[C@]12O[C@H]1[C@@H]1O[C@]13[C@]1(O[C@H]1C[C@H]1C4=C(CC[C@@]13C)C(=O)OC4)[C@@H]2OC(=O)OC(C)(C)C | -22.4
* O=S(=O)(F)c1ncnc2nc[nH]c12 | 103
* ClCCN(CCCl)c1ccc(C=NCCc2c[nH]c3ccccc23)cc1 | 106
* ClCCN(CCCl)c1nc(Cl)c(C2CC(c3ccc(Cl)cc3)=NN2c2cc(Cl)cc(Cl)c2)s1 (centres undefined) | 102
* [Br][Pb]([c]1ccccc1)([c]1ccccc1)[c]1ccccc1 | -91.1
* CCN(CC)c1ccc(C=C2C(=O)NC(=S)NC2=O)cc1 | 99.5
* O=S(=O)(O)c1ccc(-c2ccc([As](=O)(O)O)cc2)cc1 | 101
* Cc1ccc2oc(=O)c3c(c2c1)OC(N)=C(C#N)C3c1ccco1 (centres undefined) | 94.9
* N#CC(C#N)=Cc1ccc2ccccc2c1 | 121
* N#CC1=C(N)Oc2cc3c(cc2C1c1cccs1)OCO3 (centres undefined) | 53.7
* CC(C)(C)NCC(O)c1ccccc1Cl (centres undefined) | 53.6
* CC[C@@H](C)/C=C(C)/C=C/C(=O)c1c(O)c(-c2ccc(O)cc2)cn(O)c1=O | -0.798
* O=[N+]([O-])c1ccccc1N1CCNCC1 | 104
* O=CN1N=C(c2ccc3c(c2)OCO3)CC1c1sc(N(CCCl)CCCl)nc1Cl (centres undefined) | 97.9
* CC1(CF)NC(=O)NC1=O (centres undefined) | 104
* Nc1ccc([N+](=O)[O-])c2c1Oc1ccccc1O2 | 91.9
* Oc1ccc(O)c2c1C1(Cl)C(Cl)=C(Cl)C2(Cl)C1(Cl)Cl | 34.3
* O=C1NC(=O)C(CN2C(=O)C3(c4ccccc42)[C@H](Cl)C(=O)N3c2ccccc2)C(=O)N1 (some centres undefined) | 79.3
* [N-]=[N+]=NC(C(=O)O)c1ccccc1 (centres undefined) | 99.7
* CCN(CC)CCOc1c(C(C)C)cccc1C(C)C | 96.5
* COc1cc2c(cc1OC)CN(C)C(C)C2 (centres undefined) | 109
* O=C1NC2(CCNCC2)Nc2ccccc21 | 109
* COc1cc(C2CC(=O)Nc3nc(N)[se]c32)cc(OC)c1OC (centres undefined) | 90
* CC(=O)O[C@@H]1C2=C(C)C3(CC3)[C@@](C)(O)C(=O)C2=C[C@@]1(C)CO | 13.6
* Nc1ccc(N)c2c1Oc1ccccc1O2 | 92.1
* CC12CCC(=O)C=C1C(O)CC1C2CCC2(C)C(O)CCC12 (centres undefined) | 107
* OC1CCCCC1N1CCC(c2ccccc2)CC1 (centres undefined) | 104
* Fc1ccc(C2=NN(c3ccccc3)C(c3sc(N(CCCl)CCCl)nc3Cl)C2)cc1 (centres undefined) | 84
* CC12CCC(=O)C=C1CCC1C2CCC2(C)C(C(=O)COC(=O)Cc3ccc(N(CCCl)CCCl)cc3)CCC12 (centres undefined) | 53.1
* O=C1NC(=O)C(O)(C2(O)C(=O)NC(=O)NC2=O)C(=O)N1 | 110
* O=c1[nH]c2cc(Cl)ccc2n1C1CCN(CCCC(c2ccc(F)cc2)c2ccc(F)cc2)CC1 | 61.5
* CC(=O)Oc1ccc(Cl)cc1 | 101
* CNC(=O)Oc1cccc(OC)c1 | 95.5
* CN1C(=O)NC(=O)C(N=Nc2ccc(Cl)cc2)C1=O (centres undefined) | 96.3
* CCC[CH2][Sn]([CH2]CCC)([CH2]CCC)[O]C(=O)c1ccc(Cl)cc1Cl | -65
* CN(Cc1cccnc1)N=O | 99.9
* Clc1ccc(SSC(Cl)(Cl)Cl)cc1 | 108
* C[C@@H]1O[C@@H](O[C@H]2CC[C@@]3(C)[C@H](CCC4[C@@H]3C(O)C[C@]3(C)[C@@H](c5ccc(=O)oc5)CC[C@]43O)C2)[C@H](O)[C@H](O)[C@H]1O (some centres undefined) | -58.3
* CC(=O)O[C@H]1CC[C@H]2[C@@H]3CC[C@H]4CC=C(C)C[C@]4(C)[C@H]3CC[C@]12C | 116
* CC12CCC3C(CC=C4CC(O)CCC43C)C1C/C(=C\N1CCOCC1)C2=O (centres undefined) | 96.1
* COc1ccc2c(c1)NC1=C(C(=O)OC1)C2c1cc(OC)c(OC)c(OC)c1 (centres undefined) | 53.8
* CCC1([N+](=O)[O-])COP(=O)(NCc2cccnc2)OC1 (centres undefined) | 106
* COc1cc(C2=NN(c3ccccc3)C(c3sc(N(CCCl)CCCl)nc3Cl)C2)cc(OC)c1OC (centres undefined) | 78.9

These data points were gathered from PubChem BioAssay (NCI).
